Each recorded value in this set is attributed to paper PMC9696794.

# Test system: E. coli MC4100 (wild type, WT)
# procedureText: microbe, parasite or virus in culture
# experimentalContext: wild type
Where a SMILES comes first, the peptide text is derived from it. Bridges are numbered along the chain shown (N, C = ends). The star is where a group is joined. Lauroyl = CCCCCCCCCCCC(=O)*; Decanoyl = CCCCCCCCCC(=O)*; Octanoyl = CCCCCCCC(=O)*
observable: MIC E. coli MC4100 (WT) (µg/mL)
Provide the reading as a plain figure in µg/mL.

compound="CCCCCCCC(=O)N[C@H]1CSSC[C@@H](C(=O)N[C@@H](CCCNC(=N)N)C(=O)N[C@@H](CC(C)C)C(N)=O)NC(=O)[C@H](CCCNC(=N)N)NC(=O)[C@H](Cc2c[nH]c3ccccc23)NC(=O)[C@H](Cc2c[nH]c3ccccc23)NC(=O)CNC(=O)[C@H](Cc2c[nH]c3ccccc23)NC(=O)[C@H](CCCNC(=N)N)NC(=O)[C@H](CCCNC(=N)N)NC(=O)CNC1=O [Peptide C8-cTurg-6, C8- (CGRRWGWWRC)RL-NH2] (Octanoyl-CGRRWGWWRCRL-NH2; disulfide 1-10)" targetortestsystem="E. coli MC4100 (wild type, WT)" unittext=µg/mL valueobserved=8
compound="CCCCCCCCCC(=O)N[C@H]1CSSC[C@@H](C(=O)N[C@@H](CCCCN)C(=O)N[C@@H](CC(C)C)C(N)=O)NC(=O)[C@H](CCCCN)NC(=O)[C@H](Cc2c[nH]c3ccccc23)NC(=O)CNC(=O)CNC(=O)[C@@H]2CCCN2C(=O)[C@H](CCCCN)NC(=O)[C@H](CCCCN)NC(=O)CNC1=O [Peptide C10-cTurg-1, C10 -(CGKKPGGWKC)KL-NH2] (Decanoyl-CGKKPGGWKCKL-NH2; disulfide 1-10)" targetortestsystem="E. coli MC4100 (wild type, WT)" unittext=µg/mL valueobserved=8
compound="CC(C)C[C@H](NC(=O)[C@H](CCCCN)NC(=O)[C@@H]1CSSC[C@H](N)C(=O)NCC(=O)N[C@@H](CCCCN)C(=O)N[C@@H](CCCCN)C(=O)N[C@@H](Cc2c[nH]c3ccccc23)C(=O)N[C@@H](Cc2c[nH]c3ccccc23)C(=O)NCC(=O)N[C@@H](Cc2c[nH]c3ccccc23)C(=O)N[C@@H](CCCCN)C(=O)N1)C(N)=O [cTurg-2] (H-CGKKWWGWKCKL-NH2; disulfide 1-10; N-terminus assumed)" targetortestsystem="E. coli MC4100 (wild type, WT)" unittext=µg/mL valueobserved=16
compound="CCCCCCCC(=O)N[C@H]1CSSC[C@@H](C(=O)N[C@@H](CCCCN)C(=O)N[C@@H](CC(C)C)C(N)=O)NC(=O)[C@H](CCCCN)NC(=O)[C@H](Cc2c[nH]c3ccccc23)NC(=O)CNC(=O)[C@H](Cc2c[nH]c3ccccc23)NC(=O)[C@H](Cc2c[nH]c3ccccc23)NC(=O)[C@H](CCCCN)NC(=O)[C@H](CCCCN)NC(=O)CNC1=O [Peptide C8-cTurg-2, C8- (CGKKWWGWKC)KL-NH2] (Octanoyl-CGKKWWGWKCKL-NH2; disulfide 1-10)" targetortestsystem="E. coli MC4100 (wild type, WT)" unittext=µg/mL valueobserved=8

input: Recall the recorded MIC E. coli MC4100 (WT) for CCCCCCCCCCCC(=O)N[C@H]1CSSC[C@@H](C(=O)N[C@@H](CCCCN)C(=O)N[C@@H](CC(C)C)C(N)=O)NC(=O)[C@H](CCCCN)NC(=O)[C@H](Cc2c[nH]c3ccccc23)NC(=O)CNC(=O)CNC(=O)[C@@H]2CCCN2C(=O)[C@H](CCCCN)NC(=O)[C@H](CCCCN)NC(=O)CNC1=O [Peptide C12-cTurg-1, C12 -(CGKKPGGWKC)KL-NH2] (Lauroyl-CGKKPGGWKCKL-NH2; disulfide 1-10) with E. coli MC4100 (wild type, WT) and state it.
output: 4

input: Would you kindly repeat that for CC(C)C[C@H](NC(=O)[C@H](CCCNC(=N)N)NC(=O)[C@@H]1CSSC[C@H](N)C(=O)NCC(=O)N[C@@H](CCCNC(=N)N)C(=O)N[C@@H](CCCNC(=N)N)C(=O)N[C@@H](Cc2c[nH]c3ccccc23)C(=O)NCC(=O)N[C@@H](Cc2c[nH]c3ccccc23)C(=O)N[C@@H](Cc2c[nH]c3ccccc23)C(=O)N[C@@H](CCCNC(=N)N)C(=O)N1)C(N)=O [cTurg-6] (H-CGRRWGWWRCRL-NH2; disulfide 1-10; N-terminus assumed) ?
output: 8

input: Would you kindly repeat that for CC(C)C[C@H](NC(=O)[C@H](CCCNC(=N)N)NC(=O)[C@@H]1CSSC[C@H](N)C(=O)NCC(=O)N[C@@H](CCCNC(=N)N)C(=O)N[C@@H](CCCNC(=N)N)C(=O)N[C@@H](Cc2c[nH]c3ccccc23)C(=O)N[C@@H](Cc2c[nH]c3ccccc23)C(=O)NCC(=O)N[C@@H](Cc2c[nH]c3ccccc23)C(=O)N[C@@H](CCCNC(=N)N)C(=O)N1)C(N)=O [cTurg-5] (H-CGRRWWGWRCRL-NH2; disulfide 1-10; N-terminus assumed) ?
output: 8

input: Would you kindly repeat that for CCCCCCCCCCCC(=O)N[C@H]1CSSC[C@@H](C(=O)N[C@@H](CCCNC(=N)N)C(=O)N[C@@H](CC(C)C)C(N)=O)NC(=O)[C@H](CCCNC(=N)N)NC(=O)[C@H](Cc2c[nH]c3ccccc23)NC(=O)[C@H](Cc2c[nH]c3ccccc23)NC(=O)CNC(=O)[C@H](Cc2c[nH]c3ccccc23)NC(=O)[C@H](CCCNC(=N)N)NC(=O)[C@H](CCCNC(=N)N)NC(=O)CNC1=O [Peptide C12-cTurg-6, C12- (CGRRWGWWRC)RL-NH2] (Lauroyl-CGRRWGWWRCRL-NH2; disulfide 1-10) ?
output: 16

input: Would you kindly repeat that for CCCCCCCCCC(=O)N[C@H]1CSSC[C@@H](C(=O)N[C@@H](CCCNC(=N)N)C(=O)N[C@@H](CC(C)C)C(N)=O)NC(=O)[C@H](CCCNC(=N)N)NC(=O)[C@H](Cc2c[nH]c3ccccc23)NC(=O)[C@H](Cc2c[nH]c3ccccc23)NC(=O)CNC(=O)[C@H](Cc2c[nH]c3ccccc23)NC(=O)[C@H](CCCNC(=N)N)NC(=O)[C@H](CCCNC(=N)N)NC(=O)CNC1=O [Peptide C10-cTurg-6, C10- (CGRRWGWWRC)RL-NH2] (Decanoyl-CGRRWGWWRCRL-NH2; disulfide 1-10) ?
output: 8

----------
# Test system: P. aeruginosa (Pa, ATCC 27853)
# procedureText: microbe, parasite or virus in culture
# Format: cell-based, Pseudomonas aeruginosa
# experimentalContext: ATCC 27853, 24 h
Where a SMILES comes first, the peptide text is derived from it. The star is where a group is joined. Octanoyl = CCCCCCCC(=O)*
observable: Antimicrobial Activity (MIC) Gram − Pa (µg/mL)
Provide the reading as a plain figure in µg/mL.

input: What does the data say about its Antimicrobial Activity (MIC) Gram − Pa? Entry: CCCCCCCC(=O)N[C@@H](CS)C(=O)NCC(=O)N[C@@H](CCCNC(=N)N)C(=O)N[C@@H](CCCNC(=N)N)C(=O)N[C@@H](Cc1c[nH]c2ccccc12)C(=O)NCC(=O)N[C@@H](Cc1c[nH]c2ccccc12)C(=O)N[C@@H](Cc1c[nH]c2ccccc12)C(=O)N[C@@H](CCCNC(=N)N)C(=O)N[C@@H](CS)C(=O)N[C@@H](CCCNC(=N)N)C(=O)N[C@@H](CC(C)C)C(N)=O [Peptide C8-Turg-6, C8- CGRRWGWWRC RL-NH2] (Octanoyl-CGRRWGWWRCRL-NH2)
output: 32

----------
Catalogue of Antimicrobial Activity (MIC) Fungi Ap values
# System: A. pullulans (Ap)
# procedureText: microbe, parasite or virus in culture
# Assay type: cell-based, Aurobasidium pollulans
# experimentalContext: 48 h
# Description: The synthesized peptides were screened for antifungal activity against the molds A. pullulans (Ap) and Rhodotorula sp. […] The microtiter plates containing the fungal spores and the test peptides were incubated at room temperature for 48 h and OD600 was recorded using a Synergy H1 Hybrid microplate reader system (BioTek, Winooski, VT, USA). […]
Where a SMILES comes first, the peptide text is derived from it. Bridges are numbered along the chain shown (N, C = ends). The star is where a group is joined. Lauroyl = CCCCCCCCCCCC(=O)*; Decanoyl = CCCCCCCCCC(=O)*; Octanoyl = CCCCCCCC(=O)*
Provide the reading as a plain figure in µg/mL.

In the examples that follow, each entry is paired with its recorded Antimicrobial Activity (MIC) Fungi Ap.
compound="CCCCCCCCCCCC(=O)N[C@@H](CS)C(=O)NCC(=O)N[C@@H](CCCCN)C(=O)N[C@@H](CCCCN)C(=O)N[C@@H](Cc1c[nH]c2ccccc12)C(=O)N[C@@H](Cc1c[nH]c2ccccc12)C(=O)NCC(=O)N[C@@H](Cc1c[nH]c2ccccc12)C(=O)N[C@@H](CCCCN)C(=O)N[C@@H](CS)C(=O)N[C@@H](CCCCN)C(=O)N[C@@H](CC(C)C)C(N)=O [Peptide C12-Turg-2, C12- CGKKWWGWKC KL-NH2] (Lauroyl-CGKKWWGWKCKL-NH2)" valueobserved=32
compound="CCCCCCCCCC(=O)N[C@H]1CSSC[C@@H](C(=O)N[C@@H](CCCCN)C(=O)N[C@@H](CC(C)C)C(N)=O)NC(=O)[C@H](CCCCN)NC(=O)[C@H](Cc2c[nH]c3ccccc23)NC(=O)CNC(=O)[C@H](Cc2c[nH]c3ccccc23)NC(=O)[C@H](Cc2c[nH]c3ccccc23)NC(=O)[C@H](CCCCN)NC(=O)[C@H](CCCCN)NC(=O)CNC1=O [Peptide C10-cTurg-2, C10- (CGKKWWGWKC)KL-NH2] (Decanoyl-CGKKWWGWKCKL-NH2; disulfide 1-10)" valueobserved=32
compound="CCCCCCCCCC(=O)N[C@@H](CS)C(=O)NCC(=O)N[C@@H](CCCCN)C(=O)N[C@@H](CCCCN)C(=O)N[C@@H](Cc1c[nH]c2ccccc12)C(=O)N[C@@H](Cc1c[nH]c2ccccc12)C(=O)NCC(=O)N[C@@H](Cc1c[nH]c2ccccc12)C(=O)N[C@@H](CCCCN)C(=O)N[C@@H](CS)C(=O)N[C@@H](CCCCN)C(=O)N[C@@H](CC(C)C)C(N)=O [Peptide C10-Turg-2, C10- CGKKWWGWKC KL-NH2] (Decanoyl-CGKKWWGWKCKL-NH2)" valueobserved=32
compound="CCCCCCCCCC(=O)N[C@@H](CS)C(=O)NCC(=O)N[C@@H](CCCCN)C(=O)N[C@@H](CCCCN)C(=O)N1CCC[C@H]1C(=O)NCC(=O)NCC(=O)N[C@@H](Cc1c[nH]c2ccccc12)C(=O)N[C@@H](CCCCN)C(=O)N[C@@H](CS)C(=O)N[C@@H](CCCCN)C(=O)N[C@@H](CC(C)C)C(N)=O [Peptide C10-Turg-1, C10- CGKKPGGWKC KL-NH2] (Decanoyl-CGKKPGGWKCKL-NH2)" valueobserved=32
compound="CCCCCCCC(=O)N[C@H]1CSSC[C@@H](C(=O)N[C@@H](CCCCN)C(=O)N[C@@H](CC(C)C)C(N)=O)NC(=O)[C@H](CCCCN)NC(=O)[C@H](Cc2c[nH]c3ccccc23)NC(=O)CNC(=O)CNC(=O)[C@@H]2CCCN2C(=O)[C@H](CCCCN)NC(=O)[C@H](CCCCN)NC(=O)CNC1=O [Peptide C8-cTurg-1, C8 -(CGKKPGGWKC)KL-NH2] (Octanoyl-CGKKPGGWKCKL-NH2; disulfide 1-10)" valueobserved=64

Okay, next one:
input: What does the data say about its Antimicrobial Activity (MIC) Fungi Ap? Entry: CCCCCCCC(=O)N[C@@H](CS)C(=O)NCC(=O)N[C@@H](CCCCN)C(=O)N[C@@H](CCCCN)C(=O)N1CCC[C@H]1C(=O)NCC(=O)NCC(=O)N[C@@H](Cc1c[nH]c2ccccc12)C(=O)N[C@@H](CCCCN)C(=O)N[C@@H](CS)C(=O)N[C@@H](CCCCN)C(=O)N[C@@H](CC(C)C)C(N)=O [Peptide C8-Turg-1, C8- CGKKPGGWKC KL-NH2] (Octanoyl-CGKKPGGWKCKL-NH2)
output: 32
